# Tgt: Focal adhesion kinase 1 (Homo sapiens)
# Assay method text: small-molecule microarray binders of FAK, primary screen, biochemical, 635/667 nm fluorescence, BSA, DTT (AID 1130);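 further: composite of spot emission at 667 nm and signal to noise over triplicate slides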
# Test conditions: PTK2 binding, 635 nm fluorescence, higher = more signal
The class of a record is decided solely by its measured composite z-score; consult LOW: < 0.09; MEDIUM: ≥ 0.09 and < 0.5; HIGH: ≥ 0.5

Completed entries (count: 5):
{"Compound": "CCCCC=C[C@@H](NC(=O)c1ccco1)c1ccccc1", "Label value": "LOW"}
{"Compound": "NC(=O)NCC#Cc1ccc2c(c1)[C@]1(C(=O)N2)[C@H](C(=O)NC[C@H](O)c2ccccc2)[C@H]2C(=O)O[C@H](c3ccccc3)[C@H](c3ccccc3)N2[C@@H]1c1ccc(O)cc1", "Label value": "HIGH"}
{"Compound": "CC(=O)C1=CCC(c2ccccc2)N(S(=O)(=O)c2ccc(C)cc2)C1 (centres undefined)", "Label value": "MEDIUM"}
{"Compound": "CCOC(=O)[C@H]1C[C@H]2O[C@@]23C[C@H]1C(=O)N1CCCC1[C@@H]3O[Si](C)(C)C(C)(C)C (some centres undefined)", "Label value": "LOW"}
{"Compound": "[N-]=[N+]=NCc1ccccc1[C@@H]1OC(c2ccc(OCCCO)cc2)=N[C@]1(Cc1ccccc1N=[N+]=[N-])C(=O)NCc1ccccc1", "Label value": "HIGH"}

**Q:** Which composite z-score category applies to `Cc1ccc(S[C@]2(C(=O)NC3CC3)CC(=O)N(Cc3ccccc3)[C@@H]2c2ccc(CO)cc2)cc1` here?
**A:** LOW

**Q:** Class for CC(C)c1ccc(NN2C(C(O)c3ccc(N(C)C)cc3)C=CC3C(=O)N(c4ccccc4)C(=O)C32)cc1 (centres undefined) ?
**A:** LOW

**Q:** State the band of Cc1cc(C)c(C(O)C2C=CC3C(=O)N(C)C(=O)C3N2Nc2ccccc2)c(C)c1 (centres undefined)
**A:** MEDIUM

**Q:** Returns: class label. Input: `C=CCOC(=O)[C@H]1[C@@H]2C(=O)O[C@@H](c3ccccc3)[C@@H](c3ccccc3)N2[C@@H](c2ccc(OCCOC(=O)[C@@H]3C[C@@H]4C(=O)N5CCC[C@H]5C(=O)N4[C@@H]3c3ccc(O)cc3)cc2)[C@]12C(=O)Nc1ccccc12`
**A:** MEDIUM

**Q:** Please indicate the class for O=C(OCCF)C1=CCC(c2cccc(Cl)c2)O1 (centres undefined) based on its composite z-score.
**A:** MEDIUM

**Q:** Input Cc1ccccc1C(O)C1C=CC2C(=O)N(C)C(=O)C2N1N1CCCCC1 (centres undefined) ; output its category
**A:** HIGH

**Q:** Where would `COCCOC(=O)N1C(=O)[C@@]2(c3cc(C#CCC(C(=O)OC)C(=O)OC)ccc31)[C@H](c1ccc(O)cc1)N1[C@H](c3ccccc3)[C@H](c3ccccc3)OC(=O)[C@H]1[C@@H]2C(N)=O` land among the classes by reported composite z-score?
**A:** MEDIUM

**Q:** Which of the defined bands does the recorded composite z-score of `CC(C)CNC(=O)[C@@]1(c2ccc([N+](=O)[O-])cc2)CC(=O)N(CC23CC4CC(CC(C4)C2)C3)[C@@H]1c1ccc(CO)cc1` sit within?
**A:** MEDIUM

---

# Assay method text: splicing luciferase reporter signal modulators, primary screen, spliceosome inhibition project, cell-based, HEK293, splice +/- reporter (AID 1101);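 further: HEK293 cells carrying a splicing-competent luciferase reporter gene; test concentration not given here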
# Test conditions: luminescence, 24 h, higher = more signal, called active from +8 up or from −8 down
Label rule, in plain words: z-score of -0.8 and up is T, under -0.8 is F.

{"Molecule": "CC(C)c1ccc(NN2C(C(O)c3c(F)cccc3Cl)C=CC3C(=O)N(c4ccccc4)C(=O)C32)cc1 (stereo not drawn)", "Label value": "F"}
{"Molecule": "CN(C)C(=O)[C@@]1(CCC(=O)OC(C)(C)C)N=C(c2ccc(OCCCO)cc2)O[C@H]1c1ccccc1", "Label value": "F"}
{"Molecule": "O=C1O[C@@H](c2ccccc2)[C@@H](c2ccccc2)N2[C@@H](c3ccc(OCCO)cc3)[C@]3(C(=O)Nc4ccccc43)[C@@H](C(=O)Nc3nc4ccccc4s3)[C@H]12", "Label value": "F"}

**Q:** Threshold query (z-score >= -0.8) on `Cc1ccc(S[C@]2(C(=O)NCCN3CCOCC3)CC(=O)N(Cc3cc(C(F)(F)F)cc(C(F)(F)F)c3)[C@@H]2c2ccc(CO)cc2I)cc1`
**A:** F

**Q:** Form field: z-score at least -0.8? Entry: `C=CC(=C)C1=CCO[C@@H]1[C@H]1CCCN1S(=O)(=O)c1ccccc1[N+](=O)[O-]`
**A:** T

**Q:** Check if z-score >= -0.8 (inclusive). Item: `C=CCOC(=O)[C@@H]1[C@H]2C(=O)O[C@H](c3ccccc3)[C@H](c3ccccc3)N2[C@H](c2ccc(OCCOC(=O)[C@@H]3C[C@@H]4C(=O)N[C@@H](Cc5ccccc5)C(=O)N4[C@@H]3c3cccc(OCCO)c3)cc2)[C@@]12C(=O)Nc1ccc(I)cc12`
**A:** T

**Q:** Answer whether z-score of `[N-]=[N+]=NCc1ccccc1C[C@]1(C(=O)O)N=C(c2ccc(OCCCO)cc2)O[C@H]1c1ccccc1` is greater than or equal to -0.8.
**A:** T

**Q:** Does the molecule `CCCC[C@H]1OB(O)C[C@H]2C1=C(C)C[C@H]1C(=O)N(Cc3ccccc3)C(=O)[C@H]12` have recorded z-score that is -0.8 or more?
**A:** T

---

# Assay method text: anti-His antibody binders, primary screen, artefact control for SMM control protein annotation, biochemical, small-molecule microarray, 635 nm fluorescence (AID 1128);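 further: score merges feature fluorescence with signal-to-noise for each printed compound spot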
# Test conditions: anti-His Alexa647 antibody binding, higher = more signal
// bucketize composite z-score: b0: < 0.8; b1: ≥ 0.8 and < 2; b2: ≥ 2

These solved cases illustrate the format of a correct answer.
{"Molecule": "O=C1O[C@H](c2ccccc2)[C@H](c2ccccc2)N2[C@H]1[C@@H](C(=O)N1CCN(c3ncccn3)CC1)[C@]1(C(=O)Nc3ccccc31)[C@H]2c1ccc(OCCO)cc1", "Label value": "b1"}
{"Molecule": "C=C[C@H](C)[C@@H](O)c1ccc(O)c2ccccc12", "Label value": "b1"}
{"Molecule": "Cc1ccc(S[C@]2(C(=O)NCc3ccccc3)CC(=O)N(Cc3ccccc3Cl)[C@@H]2c2ccc(CO)cc2I)cc1", "Label value": "b2"}
{"Molecule": "O=C1O[C@@H](c2ccccc2)[C@@H](c2ccccc2)N2[C@@H](c3ccc(OCCO)cc3)[C@]3(C(=O)Nc4ccc(C#CC5=CCCCC5)cc43)[C@@H](C(=O)O)[C@H]12", "Label value": "b1"}
{"Molecule": "C=C[C@H](COC(C)=O)N(Cc1ccc(OC(C)=O)c(OC)c1)S(=O)(=O)c1ccc(Br)cc1", "Label value": "b1"}

**Q:** Lab note: which band did `CN(C)CCCNC(=O)[C@@]1(Cc2ccccc2I)c2ccccc2C(=O)N(Cc2ccccc2C(F)(F)F)[C@H]1c1ccc(CO)cc1` land in?
**A:** b1

**Q:** Which category fits this record: `C=C(CCCC)/C(=C/C[C@H](OC(C)=O)c1ccc(CO)o1)c1cnc2ccccc2c1`
**A:** b1

**Q:** Hey, which category is C[C@H]1NC(=O)[C@H](Cc2ccccc2)NC(=O)[C@@]23C(=O)N[C@@H](Cc4ccccc4)C2[C@H](C)[C@@]2(C)O[C@H]2C3/C=C/C/C=C\CNC1=O (stereo partly drawn) in, do you know?
**A:** b0

**Q:** Exam item: assign `COC(=O)[C@@]1(Cc2ccc(OC)cc2)[C@H]2c3cc(C(=O)N4CCCC4)n(Cc4ccccn4)c3C[C@H]2CN1C(=O)c1ccccc1` to the correct category.
**A:** b2

**Q:** Please indicate the class for `O=C(CS)NCCCCCCNC(=O)[C@H]1C[C@H]2C(=O)N3CCC[C@H]3C(=O)N2[C@H]1c1cccc(OCCO)c1` based on its composite z-score.
**A:** b1

**Q:** Bin? `C=CCNC(=O)[C@@H]1[C@H]2C(=O)O[C@H](c3ccccc3)[C@H](c3ccccc3)N2[C@H](c2ccccc2OCCO)[C@@]12C(=O)Nc1ccc(C#CC3=CCCCC3)cc12`
**A:** b1

**Q:** Which bin, given its composite z-score, does C=CCC(OC(C)=O)[C@@H]1[C@@H](N(Cc2cccc3ccccc23)C(=O)c2ccc(C)cc2)c2cc(OCCCO)ccc2N1C(=O)Cc1ccc(OC)cc1 (stereo partly drawn) occupy?
**A:** b0

**Q:** Assign a category based on measured composite z-score for `COC(=O)[C@]1(Cc2ccccc2N=[N+]=[N-])N=C(c2ccc(OCCCO)cc2)O[C@@H]1c1ccccc1N=[N+]=[N-]` and give only the class name.
**A:** b2

**Q:** Hi, small favor: classify `O=C(O)[C@H]1C[C@H]2C(=O)NCC(=O)N2[C@H]1c1ccc(O)cc1` by its composite z-score when you get a moment.
**A:** b2

**Q:** Which composite z-score category applies to O=C1OCCC=C[C@H]2OC34C=CCN(c5ccc6ccccc6c5)C(=O)[C@H]3N(CCCCCO)C(=O)[C@@H]4C12 (stereo partly drawn) here?
**A:** b0

**Q:** Entry CCOC(=O)C1=CCC(c2ccc([N+](=O)[O-])cc2)N(S(=O)(=O)c2ccc(C)cc2)C1 (stereo not drawn) belongs to which category?
**A:** b0

**Q:** Returns: class label. Input: `CN(C)CCCCNC(=O)[C@H]1C[C@H]2C(=O)N[C@@H](Cc3ccccc3)C(=O)N2[C@H]1c1ccc(O)cc1`
**A:** b0
